Tested on: SKOV3
Test: Primary qHTS to identify gynecologic anti-cancer compounds using libraries of approved drugs and bioactive compounds (AID 1345084); also: nearly all actives have a fitted effect of over 55% in size; also: potency is read from the fitted curve at half-maximal effect
Details: Gynecologic cancer cell panel viability, ATPlite luminescence, 48 h; series mostly up to 57.5 µM
Results filed as inconclusive are left out. Calls of active or inactive are those of the source. Calls follow the shape of the dose curve; as a rule, active = well fitted cell-killing curve with a large enough effect; inconclusive = small, poorly fitted or top-dose-only effect, or effect the other way; inactive = flat fitted curve, though single readings scatter.

| MOLECULE | TGT | Potency |
| --- | --- | --- |
| O=C1C(Cc2ccc(O)cc2)N2C(=O)CCN(C(=O)NCc3ccccc3)C2CN1Cc1cccc2ccccc12 (stereo not drawn) | SKOV3 | 20 µM (active) |
| C#Cc1cccc(Nc2nc3cc(C(=O)O)ccc3c3cncnc23)c1 | SKOV3 | inactive |
| COc1cc(OC)c(NC(=O)c2ccc(Cc3cc4c(cc3C)C(C)(C)CCC4(C)C)o2)c(OC)c1 | SKOV3 | inactive |
